The reader will find reported inhibition values listed item by item below.
Molecular target: L-lactate dehydrogenase (Plasmodium falciparum (isolate CDC / Honduras))
Assay: PfLDH activity inhibition – cell lysate, 3D7 strain, counter-screen for P. falciparum growth inhibition project (AID 2304);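 also: 0% = vehicle and 100% = reference inhibitor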
Details: P. falciparum 3D7 crude extract, LDH APAD/NBT absorbance; at 2 µM; active compounds read high
The reply should contain only the number, in %.

Solved cases (3 shown):
COCCSc1nc2scc(C)c2c(=O)n1Cc1cccc(OC)c1 : -8
COc1ccc2nc3cc(Cl)ccc3c(N)c2c1 : -5
CC(C)CCN1CCCN(Cc2ccc(C(=O)Nc3ccc(Cl)cc3)cc2)CC1 : 4

Can you look up inhibition on L-lactate dehydrogenase (Plasmodium falciparum (isolate CDC / Honduras)) for CCCCc1ccc(-c2ccc3[nH]c(C)c(Br)c(=O)c3c2)cc1 ? -2

# query: inhibition | item COc1cc(C)c(C(O)CNC(C)CCc2ccccc2)cc1C (stereo not given) | system: L-lactate dehydrogenase (Plasmodium falciparum (isolate CDC / Honduras)) -2

Give the reported inhibition for COc1ccc(NC(=O)c2ccc(-c3ccc(-c4cccnc4)cc3)c(C)c2)cc1OCCN(C)C (system: L-lactate dehydrogenase (Plasmodium falciparum (isolate CDC / Honduras))). 0
